The measurements presented in this section are drawn from patent US20080287398A1.

tested.on: canine TRPM8 (Canis lupus familiaris)
Construct: expressed in transfected cells
assay: In vitro canine TRPM8 functional assay (Ca2+-sensitive dye, FLIPR/FDSS, icilin activation)
Format: cell-based
condition.set: HEK293, read-out: % I (0.5 μM), 0.5 μM compound; HEK293 cells expressing canine TRPM8, icilin activation
A collection of compounds and their measured inhibition at 0.5 µM
Report the value in % with no unit label.

CCOP(=O)(OCC)C(Cc1cccc([N+](=O)[O-])c1)c1sc2ccccc2c1Br (stereo not drawn)	103
CCOP(=O)(OCC)C(Cc1ccc(OC(F)(F)F)cc1)c1sc2ccccc2c1Br (stereo not drawn)	104

Ask: Field request: inhibition at 0.5 µM | item: CCOP(=O)(OCC)C(Cc1ccc(F)c(F)c1)c1sc2ccccc2c1-c1cccc(F)c1 (stereo not drawn)
Result: 100

Ask: I have this compound here, CCOP(=O)(OCC)C(Cc1cccc(Cl)c1)c1sc2ccccc2c1Br (stereo not drawn) , and I need its recorded inhibition at 0.5 µM.
Result: 102

Ask: Look at this compound and give its reported inhibition at 0.5 µM. CCOP(=O)(OCC)C(Cc1ccc(F)c(F)c1)c1sc2ccccc2c1-c1ccccc1 (stereo not drawn)
Result: 101

----------
Recorded % I (0.5 μM), one value per entry.
tested.on: canine TRPM8 (Canis lupus familiaris, UniProt Q1A7N1)
Construct: expressed in transfected cells
Sequence (Q1A7N1 1-1104): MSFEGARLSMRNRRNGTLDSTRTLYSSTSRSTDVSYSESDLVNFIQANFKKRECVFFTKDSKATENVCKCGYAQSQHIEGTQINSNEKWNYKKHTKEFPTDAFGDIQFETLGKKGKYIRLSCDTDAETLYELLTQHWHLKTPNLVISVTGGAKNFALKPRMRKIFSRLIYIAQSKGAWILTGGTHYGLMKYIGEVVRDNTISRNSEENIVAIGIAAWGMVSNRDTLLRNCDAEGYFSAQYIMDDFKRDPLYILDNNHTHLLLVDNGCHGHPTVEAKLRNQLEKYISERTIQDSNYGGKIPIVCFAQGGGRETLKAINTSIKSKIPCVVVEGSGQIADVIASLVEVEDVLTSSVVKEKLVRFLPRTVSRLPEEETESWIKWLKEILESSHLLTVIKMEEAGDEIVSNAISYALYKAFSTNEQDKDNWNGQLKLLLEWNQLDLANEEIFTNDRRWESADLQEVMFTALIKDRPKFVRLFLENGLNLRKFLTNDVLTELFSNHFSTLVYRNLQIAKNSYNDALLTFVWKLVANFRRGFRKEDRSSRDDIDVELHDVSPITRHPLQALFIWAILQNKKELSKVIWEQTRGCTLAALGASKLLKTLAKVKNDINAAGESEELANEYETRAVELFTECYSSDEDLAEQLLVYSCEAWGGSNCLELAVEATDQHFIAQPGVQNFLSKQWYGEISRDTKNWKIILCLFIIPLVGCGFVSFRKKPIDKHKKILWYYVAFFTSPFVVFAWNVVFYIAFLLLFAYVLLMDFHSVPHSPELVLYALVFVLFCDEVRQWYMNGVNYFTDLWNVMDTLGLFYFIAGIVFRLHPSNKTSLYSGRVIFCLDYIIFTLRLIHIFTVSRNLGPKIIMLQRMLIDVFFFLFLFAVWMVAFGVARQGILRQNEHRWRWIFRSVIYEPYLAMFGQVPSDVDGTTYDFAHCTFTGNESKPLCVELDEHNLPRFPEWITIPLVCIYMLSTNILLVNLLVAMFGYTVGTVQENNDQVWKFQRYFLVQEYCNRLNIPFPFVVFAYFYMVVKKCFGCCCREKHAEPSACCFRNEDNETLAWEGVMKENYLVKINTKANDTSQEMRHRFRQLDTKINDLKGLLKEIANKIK
assay: In vitro canine TRPM8 functional assay (Ca2+-sensitive dye, FLIPR/FDSS, icilin activation)
Type: cell-based
condition.set: 0.5 μM compound; HEK293 cells expressing canine TRPM8, icilin activation
Use % as the unit, but write only the number.

Guide cases for % I (0.5 μM), answers given:
CCOP(=O)(OCC)C(Cc1ccccc1Cl)c1sc2ccccc2c1Br (racemic)	103
CC(C)OP(=O)(OC(C)C)C(Cc1ccc(Cl)c(F)c1)c1sc2ccccc2c1Cl (racemic)	103

Ask: Which measured % I (0.5 μM) value corresponds to CC(C)OP(=O)(OC(C)C)C(Cc1ccc(Cl)cc1)c1sc2ccccc2c1Cl (stereo not drawn) ?
Result: 103

Ask: Given the entry CC(C)OP(=O)(OC(C)C)C(Cc1cc(F)cc(Cl)c1)c1sc2ccccc2c1Cl (stereo not drawn) , report its measured % I (0.5 μM).
Result: 104

Ask: Give its % I (0.5 μM) value. Item: CCOP(=O)(OCC)C(Cc1ccc(C(F)(F)F)cc1)c1sc2ccccc2c1Cl (racemic)
Result: 103

Ask: Bench note: what % I (0.5 μM) did CCOP(=O)(OCC)C(Cc1ccc(SC(F)(F)F)cc1)c1sc2ccccc2c1Br (racemic) show?
Result: 103

Ask: Which % I (0.5 μM) is listed for CC(C)OP(=O)(OC(C)C)C(Cc1ccc(C(F)(F)F)c(F)c1)c1sc2ccccc2c1Cl (stereo not drawn) ?
Result: 104

----------
Recorded % I (0.5 μM) for the following molecules
tested.on: canine TRPM8 (Canis lupus familiaris)
Construct: expressed in transfected cells
assay: In vitro canine TRPM8 functional assay (Ca2+-sensitive dye, FLIPR/FDSS, icilin activation)
Assay type: cell-based
condition.set: 0.5 μM compound; HEK293 cells expressing canine TRPM8, icilin activation
Number only, in %; omit the unit.

CCOP(=O)(OCC)C(Cc1cc(O)c(Cl)cc1F)c1sc2ccccc2c1Br (racemic) [Cpd 231]	98
CCOP(=O)(OCC)C(Cc1cc(F)cc(C(F)(F)F)c1)c1sc2ccccc2c1Br (stereo not shown) [Cpd 140]	102
CCOP(=O)(OCC)C(Cc1ccc(SC(F)(F)F)cc1)c1sc2ccccc2c1Cl (racemic) [Cpd 283]	103

Next:
Ask: Recorded % I (0.5 μM) for CC(C)OP(=O)(OC(C)C)C(Cc1cccc(SC(F)(F)F)c1)c1sc2ccccc2c1Cl (stereo not shown) [Cpd 255] with canine TRPM8 (Canis lupus familiaris), please?
Result: 103

----------
tested.on: canine TRPM8 (Canis lupus familiaris, UniProt Q1A7N1)
Construct: expressed in transfected cells
assay: In vitro canine TRPM8 functional assay (Ca2+-sensitive dye, FLIPR/FDSS, icilin activation)
Format: cell-based
condition.set: 1 μM compound; HEK293 cells expressing canine TRPM8, icilin activation
measured.quantity: % I (1 μM) (%)
Numbers only here, please. The scale is %.

Example results:
CCOP(=O)(OCC)C(Cc1cc(C(F)(F)F)ccc1Cl)c1sc2ccccc2c1C (centres unmarked) [Cpd 99]	100
COP(=O)(OC)C(Cc1ccc(F)c(F)c1)c1sc2ccccc2c1Br (centres unmarked) [Cpd 201]	100
CCOP(=O)(OCC)C(Cc1cc2c(cc1Cl)OCO2)c1cc2ccccc2s1 (centres unmarked) [Cpd 112]	42
CCOP(=O)(Cc1cc2ccccc2s1)OCc1ccccc1Cl (racemic) [Cpd 105]	48

In the following, a different compound is considered.
Ask: Need % I (1 μM) of CCOP(=O)(OCC)C(Cc1c(Cl)cccc1Cl)c1sc2ccccc2c1C (centres unmarked) [Cpd 54] , thanks.
Result: 100

----------
tested.on: canine TRPM8 (Canis lupus familiaris)
Construct: expressed in transfected cells
assay: In vitro canine TRPM8 functional assay (Ca2+-sensitive dye, FLIPR/FDSS, icilin activation)
Format: cell-based
condition.set: HEK293 cells expressing canine TRPM8, icilin activation; eight-point dose-response; read-out: IC50
pIC50: −log10 of the molar value.
Classification field: enter 1 for pIC50 values not below 7, 0 for values below it.

Illustrative cases are given below, each with its answer.
CCOP(=O)(OCC)C(Cc1ccc(Cl)cc1)c1sc2ccccc2c1Br (centres unmarked)	1
CC(C)OP(=O)(OC(C)C)C(Cc1cccc(O)c1F)c1sc2ccccc2c1Br (racemic)	1

Now let's try a different one.
Ask: State whether the measured pIC50 reaches 7, counting equality as reaching it, for CCOP(=O)(OCC)C(Cc1ccc(F)c(Cl)c1)c1sc2ccccc2c1Cl (racemic)
Result: 1

----------
Quick list: % I (5 μM) per entry.
tested.on: canine TRPM8 (Canis lupus familiaris, UniProt Q1A7N1)
Construct: expressed in transfected cells
assay: In vitro canine TRPM8 functional assay (Ca2+-sensitive dye, FLIPR/FDSS, icilin activation)
Format: cell-based
condition.set: 5 μM compound; HEK293 cells expressing canine TRPM8, icilin activation
Only the number, expressed in %, is required.

Please review the following examples before continuing.
CCOP(=O)(Cc1cc2ccccc2s1)OCc1ccccc1Br (stereo not shown)	96
CCOP(=O)(OCC)C(Cc1ccccc1F)c1cc2ccccc2s1 (stereo not shown)	100
CCOP(=O)(Cc1cc2ccccc2s1)OCc1c(Cl)cccc1Cl (stereo not shown)	98
CCOP(=O)(Cc1cc2ccccc2s1)OCc1ccccc1F (stereo not shown)	98
CCOP(=O)(OCC)C(Cc1ccccc1Cl)c1cc2ccccc2s1 (stereo not shown)	100

Ask: Which measured % I (5 μM) value corresponds to CCOP(=O)(OCC)C(Cc1c(Cl)cccc1Cl)c1cc2ccccc2s1 (stereo not shown) ?
Result: 100

Ask: Quick check: % I (5 μM) of CCOP(=O)(Cc1cc2ccccc2s1)OCc1ccccc1C (stereo not shown) ?
Result: 99

----------
tested.on: canine TRPM8 (Canis lupus familiaris, UniProt Q1A7N1)
Construct: expressed in transfected cells
assay: In vitro canine TRPM8 functional assay (Ca2+-sensitive dye, FLIPR/FDSS, icilin activation)
Type: cell-based
condition.set: HEK293, read-out: % I (1 μM), 1 μM compound; HEK293 cells expressing canine TRPM8, icilin activation
Measured inhibition at 1 µM of individual entries
Entry rule: numbers only, all in %.

Worked set:
CCOP(=O)(OCC)C(Cc1ccc(Cl)c(Cl)c1)c1sc2ccccc2c1-c1ccccc1 (centres unmarked) [Cpd 64]	64
CCOP(=O)(OCC)C(Cc1ccc(F)c(F)c1)c1sc2cccc(F)c2c1C (centres unmarked) [Cpd 3]	100
CCOP(=O)(OCC)C(C)(Cc1ccc(F)c(F)c1)c1sc2ccccc2c1C (centres unmarked) [Cpd 79]	88
CCOP(=O)(OCC)C(Cc1ccc(F)c(F)c1)c1sc2ccccc2c1-c1ccc(F)nc1 (centres unmarked) [Cpd 130]	100
CCOP(=O)(OCCN(C)C)C(Cc1ccc(F)c(F)c1)c1sc2ccccc2c1C (centres unmarked) [Cpd 103]	60

Ask: Item CCOP(=O)(Cc1cc2ccccc2s1)OCc1ccccc1F (centres unmarked) [Cpd 109] has what recorded inhibition at 1 µM?
Result: 17

Ask: Would you mind telling me what inhibition at 1 µM value was observed for CCOP(=O)(Cc1cc2ccccc2s1)OCc1c(Cl)cccc1Cl (centres unmarked) [Cpd 94] ?
Result: 79

Ask: Any idea what its inhibition at 1 µM is? The molecule is CCOP(=O)(OCC)C(Cc1ccc(F)c(F)c1)c1sc2cccc(Cl)c2c1C (centres unmarked) [Cpd 65]
Result: 100

----------
tested.on: canine TRPM8 (Canis lupus familiaris)
Construct: expressed in transfected cells
assay: In vitro canine TRPM8 functional assay (Ca2+-sensitive dye, FLIPR/FDSS, icilin activation)
Format: cell-based
condition.set: HEK293, read-out: % I (1 μM), 1 μM compound; HEK293 cells expressing canine TRPM8, icilin activation
Rule: inhibition at 1 µM under 90% gives -1, otherwise 1.

CCOP(=O)(OCC)C(Cc1ccc(Cl)c(Cl)c1)c1cc2ccccc2s1 (stereo not drawn)	1

Ask: Kindly determine if inhibition at 1 µM recorded for CCOP(=O)(OCC)C(Cc1ccccc1F)c1sc2ccccc2c1CN(C)C (stereo not drawn) is above or exactly 90%.
Result: -1

Ask: Does the compound CCOP(=O)(Cc1cc2ccccc2s1)OCc1ccccc1C (stereo not drawn) have recorded inhibition at 1 µM that is 90% or more?
Result: -1

Ask: Can CCOP(=O)(OCC)C(Cc1ccc(F)c(F)c1)c1sc2cc(OC)ccc2c1C (stereo not drawn) be said to have inhibition at 1 µM at or above 90%?
Result: -1

Ask: Textbook exercise: given the entry CCOP(=O)(OCC)C(Cc1ccc(Cl)c(Cl)c1)c1sc2ccccc2c1Br (stereo not drawn) , state whether its inhibition at 1 µM is greater than or equal to 90%.
Result: 1

Ask: State whether the measured inhibition at 1 µM reaches 90%, counting equality as reaching it, for CCOP(=O)(OCC)C(Cc1ccc(F)c(F)c1)c1sc2ncccc2c1Br (stereo not drawn)
Result: 1

Ask: Hello, I need to know if CCOP(=O)(OCC)C(Cc1cccc(-c2ccccc2)c1)c1sc2ccccc2c1C (stereo not drawn) has measured inhibition at 1 µM not below 90%. Thanks!
Result: 1

Ask: Does the reported inhibition at 1 µM for CCOP(=O)(OCC)C(Cc1ccc(F)c(F)c1)c1sc2ccc(F)cc2c1C (stereo not drawn) fall at or above the 90% mark?
Result: 1

Ask: Hi team, for CCOP(=O)(OCC)C(Cc1ccc(F)c(F)c1)c1sc2cc(Cl)ccc2c1C1CCCC1 (stereo not drawn) , is the recorded inhibition at 1 µM at or above 90%?
Result: -1
